measuredTarget: PTP-1B (Homo sapiens, UniProt P18031)
assayText: PTP-1B inhibition
Format: biochemical
details: % inhibition at 10 micromolar compound
Recorded PTP-1B @ 10 μm for the following molecules
Numeric only. Scale: %

Input line: Specify reported PTP-1B @ 10 μm for the molecule shown: COc1ccc(NC(=O)c2cc3cc(F)ccc3[nH]2)cc1CO
Output line: 20

Input line: Specify reported PTP-1B @ 10 μm for the molecule shown: O=C(NCc1cc(O)cc(OCc2ccccc2)c1)c1cc2cc(F)ccc2[nH]1
Output line: 16

Input line: Specify reported PTP-1B @ 10 μm for the molecule shown: O=C(NCc1ccc(Cl)cc1Cl)c1cc2cc(F)ccc2[nH]1
Output line: 12

Input line: Specify reported PTP-1B @ 10 μm for the molecule shown: O=C(NCc1ccc(F)cc1)c1cc2cc(F)ccc2[nH]1
Output line: 13

Input line: Specify reported PTP-1B @ 10 μm for the molecule shown: COc1cc(CNC(=O)c2cc3cc(F)ccc3[nH]2)cc(OC)c1
Output line: 17

---

Recorded IC50 for the following compounds
measuredTarget: UniProtKB P17612
assayText: Cellular Mimetic PKA assay
Type: biochemical
details: Cellular Mimetic, 0 h preincubation; * very distorted IC50 curve; read-out: IC50 μM (cond. C, 0 h preincubation)
Starred links: 1 amine or outer side, 2 acyl side, 3 side chain; linkers in the order of their positions; H or OH if unused. Non-standard residues stand in square brackets, D forms with d. Residues, ends and D or L forms follow the SMILES beside them. X2 = O=C([C@@H](CB(O)O)N[*:1])[*:2]; X1 = O=C([C@H](CB(O)O)N[*:1])[*:2]
Numeric only. Scale: µM

CC[C@H](C)[C@H](NC(=O)[C@H](CB(O)O)NC(=O)CNC(=O)[C@H](CCCNC(=N)N)NC(=O)[C@H](CCCNC(=N)N)NC(C)=O)C(N)=O [Compound 21] (Ac-RRG[X1]I-NH2) ... 764

Input line: Specify reported IC50 for the compound shown: CC[C@H](C)[C@H](NC(=O)[C@@H](CB(O)O)NC(=O)CNC(=O)[C@H](CCCNC(=N)N)NC(=O)[C@H](CCCNC(=N)N)NC(C)=O)C(N)=O [Compound 22] (Ac-RRG[X2]I-NH2)
Output line: 1750

---

Recorded EGFRTK @ 10 μm for the following compounds
measuredTarget: EGFRTK (Homo sapiens)
Sequence (P00533 25-1210): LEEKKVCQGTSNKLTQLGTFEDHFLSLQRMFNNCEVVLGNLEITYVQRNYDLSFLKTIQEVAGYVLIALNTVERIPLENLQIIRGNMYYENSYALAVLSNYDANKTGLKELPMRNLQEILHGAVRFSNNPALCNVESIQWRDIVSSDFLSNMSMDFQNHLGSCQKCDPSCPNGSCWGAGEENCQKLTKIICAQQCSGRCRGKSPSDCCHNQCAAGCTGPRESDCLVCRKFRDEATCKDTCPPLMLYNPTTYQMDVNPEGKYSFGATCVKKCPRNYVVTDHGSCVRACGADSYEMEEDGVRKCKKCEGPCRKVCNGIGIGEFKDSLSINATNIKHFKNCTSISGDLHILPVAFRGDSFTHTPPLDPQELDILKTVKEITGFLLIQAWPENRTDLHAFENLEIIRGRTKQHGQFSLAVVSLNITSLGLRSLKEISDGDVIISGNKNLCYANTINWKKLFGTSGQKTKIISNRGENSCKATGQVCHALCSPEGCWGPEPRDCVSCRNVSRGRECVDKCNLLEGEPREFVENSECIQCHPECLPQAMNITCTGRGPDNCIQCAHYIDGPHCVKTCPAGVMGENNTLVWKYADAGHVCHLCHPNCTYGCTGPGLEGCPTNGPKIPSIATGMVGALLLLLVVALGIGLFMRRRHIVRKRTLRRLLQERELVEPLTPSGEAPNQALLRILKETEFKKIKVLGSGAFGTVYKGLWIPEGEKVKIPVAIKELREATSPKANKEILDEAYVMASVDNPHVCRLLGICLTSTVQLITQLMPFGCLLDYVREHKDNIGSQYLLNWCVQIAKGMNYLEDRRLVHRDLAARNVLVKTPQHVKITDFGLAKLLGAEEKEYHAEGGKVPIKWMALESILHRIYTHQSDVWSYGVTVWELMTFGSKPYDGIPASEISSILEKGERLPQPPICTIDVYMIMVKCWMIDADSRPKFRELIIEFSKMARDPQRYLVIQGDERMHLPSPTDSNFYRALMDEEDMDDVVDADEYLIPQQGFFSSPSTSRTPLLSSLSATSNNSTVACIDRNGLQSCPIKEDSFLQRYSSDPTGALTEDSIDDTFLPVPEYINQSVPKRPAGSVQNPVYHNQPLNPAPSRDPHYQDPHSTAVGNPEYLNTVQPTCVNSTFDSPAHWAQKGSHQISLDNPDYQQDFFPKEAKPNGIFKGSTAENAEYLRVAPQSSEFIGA
assayText: EGFRTK inhibition
Format: biochemical
details: % inhibition at 10 micromolar compound
Numeric only. Scale: %

Some solved entries appear below for comparison.
O=C(NCCCCCCO)c1cc2cc(F)ccc2[nH]1 [Compound 1qqqq] ... 18
O=C(NCc1cc(OCc2ccccc2)cc(OCc2ccccc2)c1)c1cc2cc(F)ccc2[nH]1 [Compound 1iiii] ... 12
O=C(NCc1cccc(I)c1)c1cc2cc(F)ccc2[nH]1 [Compound 1ff] ... 24

Input line: Specify reported EGFRTK @ 10 μm for the compound shown: COc1ccc(NC(=O)c2cc3cc(F)ccc3[nH]2)cc1CO [Compound 1cccc]
Output line: 19

---

Recorded PTP-1B @ 10 μm for the following compounds
measuredTarget: PTP-1B (Homo sapiens, UniProt P18031)
Sequence (P18031 1-435): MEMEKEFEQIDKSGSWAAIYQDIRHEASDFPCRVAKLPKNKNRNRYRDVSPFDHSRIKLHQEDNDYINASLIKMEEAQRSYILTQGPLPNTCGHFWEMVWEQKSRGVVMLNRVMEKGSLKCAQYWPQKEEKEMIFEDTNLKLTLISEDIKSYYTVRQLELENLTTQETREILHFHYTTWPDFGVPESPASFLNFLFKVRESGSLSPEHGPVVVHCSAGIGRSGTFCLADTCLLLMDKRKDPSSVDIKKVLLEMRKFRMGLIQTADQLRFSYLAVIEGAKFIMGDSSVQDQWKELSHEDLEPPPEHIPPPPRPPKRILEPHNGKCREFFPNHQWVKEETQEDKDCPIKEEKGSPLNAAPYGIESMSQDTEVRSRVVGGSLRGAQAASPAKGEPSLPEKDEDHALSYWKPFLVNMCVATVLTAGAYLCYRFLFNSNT
assayText: PTP-1B inhibition
Assay type: biochemical
details: % inhibition at 10 micromolar compound
Numeric only. Scale: %

Some solved entries appear below for comparison.
O=C(NCc1ccc(Cl)cc1)c1[nH]c2ccc(F)cc2c1-c1ccccc1 [Compound 2gg] ... 12
O=C(NCc1ccc(OCc2ccccc2)c(O)c1)c1cc2cc(F)ccc2[nH]1 [Compound 1jjjj] ... 15
O=C(NCc1cc(C(F)(F)F)ccc1F)c1cc2cc(F)ccc2[nH]1 [Compound 1aaa] ... 12
O=C(NCc1ccccc1Cl)c1cc2cc(F)ccc2[nH]1 [Compound 1yy] ... 10

Moving on to another compound below.
Input line: Specify reported PTP-1B @ 10 μm for the compound shown: O=C(Nc1ccccc1CO)c1cc2cc(F)ccc2[nH]1 [Compound 1xxx]
Output line: 12
